Reference for the values: patent US20230295140A1

# System: rhMAO-B (Homo sapiens (Human))
# Sequence (P27338 whole entry): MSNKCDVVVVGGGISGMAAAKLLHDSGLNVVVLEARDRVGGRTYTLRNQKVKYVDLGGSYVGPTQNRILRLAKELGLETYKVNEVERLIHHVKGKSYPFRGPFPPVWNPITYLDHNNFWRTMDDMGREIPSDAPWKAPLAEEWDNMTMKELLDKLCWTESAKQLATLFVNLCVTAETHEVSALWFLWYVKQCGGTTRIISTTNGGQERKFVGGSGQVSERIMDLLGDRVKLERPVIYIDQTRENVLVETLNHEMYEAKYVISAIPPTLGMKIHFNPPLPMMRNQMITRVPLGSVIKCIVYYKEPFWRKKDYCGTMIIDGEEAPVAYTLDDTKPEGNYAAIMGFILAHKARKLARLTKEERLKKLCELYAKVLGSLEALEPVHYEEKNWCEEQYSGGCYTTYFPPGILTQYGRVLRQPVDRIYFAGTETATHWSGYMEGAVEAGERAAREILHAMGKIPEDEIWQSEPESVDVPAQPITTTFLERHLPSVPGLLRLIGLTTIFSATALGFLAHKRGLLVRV
# Measurement description: MAO-Glo assay, MAO-B inhibition
# Type: biochemical
# Settings: class symbols, ranges defined in μM
IC50 for assorted compounds

As a guide, the following entries are already answered.
NC/C(=C/F)COc1ccc2nc(NCCC(Cl)CCO)oc2c1 (stereo not drawn) [Example 93]
1 to 10 µM
CCCCc1nc2ccc(OCCC(=CF)CN)cc2o1 [Example 38, 4-methylbenzenesulfonate]
< 0.1 µM
CCCCn1oc2cc(OC/C(=C/F)CN)ccc2c1=O [Example 9, 4-methylbenzenesulfonate]
1 to 10 µM

Entry NC/C(=C/F)COc1ccc2nc(NCc3cccnc3)oc2c1 [Example 58, bis(4-methylbenzenesulfonate)] , IC50 reported as 1 to 10 µM

Entry CCCCc1nc2ccc(C(=CF)CN)cc2o1 [Example 27, 4-methylbenzenesulfonate] , IC50 reported as 10 to 30 µM

Entry NC/C(=C/F)COc1ccc2nc(NCc3ccncc3)oc2c1 [Example 94, 4-methylbenzenesulfonate] , IC50 reported as 0.1 to 1 µM

---

# System: rhMAO-B (Homo sapiens (Human))
# Measurement description: MAO-Glo assay, MAO-B inhibition
# Type: biochemical
# Settings: class symbols, ranges defined in μM
Where a name gives a salt, the structure may show the parent alone.
IC50 for assorted compounds

As a guide, the following entries are already answered.
C=C(CN)c1ccc2nc(CCCC)oc2c1
< 0.1 µM
NC/C(=C\F)COc1ccc2nc(C3CCC(c4ccccc4)CC3)oc2c1 (centres unmarked) [Example 41, 4-methylbenzenesulfonate]
0.1 to 1 µM
NC/C(=C\F)COc1ccc2nc(N3CC4(COC4)C3)oc2c1 [Example 67, 4-methylbenzenesulfonate]
1 to 10 µM
CCCNc1nc2ccc(OC/C(=C/F)CN)cc2o1
0.1 to 1 µM
CCCCc1nc2ccc(OC/C(=C/F)CN)cc2o1 [Example 1, 4-methylbenzenesulfonate]
< 0.1 µM
NC/C(=C\F)COc1ccc2nc(NCCCO)sc2c1
1 to 10 µM
CCCNc1nc2ccc(OC/C(=C\F)CN)c(F)c2s1 [Example 14, 4-methylbenzenesulfonate]
1 to 10 µM
Cc1cc(CNc2nc3ccc(OC/C(=C/F)CN)cc3o2)cc(C)n1 [Example 91, trihydrochloride]
1 to 10 µM
CCCCc1nc2ccc(N(C)C/C(=C/F)CN)cc2o1
1 to 10 µM
CCCCc1nc2ccc(NC/C(=C\F)CN)cc2o1 [Example 44, 4-methylbenzenesulfonate]
0.1 to 1 µM

Entry CCCCc1nc2ccc(OC/C(=C/F)CN)c(F)c2o1 , IC50 reported as < 0.1 µM

Entry Cc1cc(CNc2nc3ccc(OC/C(=C\F)CN)cc3o2)cc(C)n1 [Example 60, bis(4-methylbenzenesulfonate)] , IC50 reported as 1 to 10 µM

Entry Cc1ncccc1CNc1nc2ccc(OC/C(=C\F)CN)cc2o1 [Example 69, 4-methylbenzenesulfonate] , IC50 reported as 1 to 10 µM

Entry CCCCc1nc2ccc(OC/C(=C/F)CN)cc2s1 , IC50 reported as < 0.1 µM

Entry CC1CN(c2nc3ccc(OC/C(=C/F)CN)cc3o2)C(C)(C)C1 (centres unmarked) [Example 86, 4-methylbenzenesulfonate] , IC50 reported as 1 to 10 µM

Entry NC/C(=C/F)COc1ccc2nc(NCc3ccnc(C(F)(F)F)c3)oc2c1 [Example 62, 4-methylbenzenesulfonate] , IC50 reported as 1 to 10 µM

Entry CCCCc1nc2ccc(NC/C(=C/F)CN)cc2o1 , IC50 reported as 0.1 to 1 µM

Entry CCCC(C)c1nc2ccc(OC/C(=C/F)CN)cc2o1 (centres unmarked) [Example 43, 4-methylbenzenesulfonate] , IC50 reported as 0.1 to 1 µM

Entry NC/C(=C\F)COc1ccc2nc(NCc3ccncc3)oc2c1 [Example 23, 4-methylbenzenesulfonate] , IC50 reported as 1 to 10 µM

Entry COc1cccc(CNc2nc3ccc(OC/C(=C/F)CN)cc3o2)c1 [Example 25, 4-methylbenzenesulfonate] , IC50 reported as 0.1 to 1 µM

Entry NC/C(=C\F)COc1ccc2nc(C34CC5CC(CC(C5)C3)C4)oc2c1 , IC50 reported as 1 to 10 µM

Entry NC/C(=C\F)COc1ccc2nc(NC3CCC(O)C3)oc2c1 (centres unmarked) , IC50 reported as 1 to 10 µM

Entry NC/C(=C\F)COc1ccc2nc(NCc3cccnc3)oc2c1 [Example 26, 4-methylbenzenesulfonate] , IC50 reported as 1 to 10 µM

Entry NC/C(=C\F)COc1ccc2nc(NCCCO)oc2c1 , IC50 reported as 1 to 10 µM

Entry NC/C(=C\F)COc1ccc2nc(C3CCCC3)oc2c1 [Example 37, 4-methylbenzenesulfonate] , IC50 reported as 0.1 to 1 µM

Entry CCCCc1nc2ccc(C/C(=C/F)CN)cc2o1 , IC50 reported as 1 to 10 µM
